Data credit: patent US7371758B2

# SYSTEM TESTED: PfDHFR C59R + S108N + I164L (Plasmodium falciparum, UniProt A7UD81, C59R/I164L/S108N)
# Sequence (A7UD81 whole entry C59R/S108N/I164L): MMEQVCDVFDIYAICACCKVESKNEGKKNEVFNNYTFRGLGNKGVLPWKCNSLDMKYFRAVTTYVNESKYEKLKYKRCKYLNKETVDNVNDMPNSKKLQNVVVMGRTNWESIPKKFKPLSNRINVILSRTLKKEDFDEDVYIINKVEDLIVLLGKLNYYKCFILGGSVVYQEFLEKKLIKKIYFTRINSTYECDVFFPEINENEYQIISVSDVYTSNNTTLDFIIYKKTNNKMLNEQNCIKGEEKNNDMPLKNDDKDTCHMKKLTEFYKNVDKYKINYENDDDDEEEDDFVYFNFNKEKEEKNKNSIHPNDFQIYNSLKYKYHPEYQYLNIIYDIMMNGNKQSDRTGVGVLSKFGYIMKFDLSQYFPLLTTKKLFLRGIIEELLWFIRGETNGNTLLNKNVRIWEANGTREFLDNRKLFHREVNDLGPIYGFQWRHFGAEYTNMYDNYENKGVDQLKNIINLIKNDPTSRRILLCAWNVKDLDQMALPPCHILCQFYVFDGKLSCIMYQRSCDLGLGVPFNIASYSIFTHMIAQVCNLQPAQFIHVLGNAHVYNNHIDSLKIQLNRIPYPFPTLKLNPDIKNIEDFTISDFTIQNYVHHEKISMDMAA
# PROTOCOL NOTES: biochemical
Quick rule for you: Ki under 2 nM gets true (1), anything else gets false (0).

Does the reported Ki of COC(=O)CCCc1nc(N)nc(N)c1-c1ccccc1 stay below 2 nM?
false (0)

And for COc1ccc(CCCc2nc(N)nc(N)c2-c2cccc(Cl)c2)cc1 ?
false (0)

Would you kindly repeat that for Nc1nc(N)c(-c2cccc(Cl)c2)c(CCCc2ccccc2)n1 ?
false (0)

Now try CCCCCCc1nc(N)nc(N)c1-c1ccccc1 .
true (1)

Likewise for Nc1nc(N)c(-c2cccc(Cl)c2)c(CCOCCCOc2ccccc2)n1 ?
true (1)

Now consider COC(=O)CCCc1nc(N)nc(N)c1-c1cccc(Cl)c1 .
true (1)

Request: Nc1nc(N)c(-c2ccccc2)c(CCCc2ccccc2)n1
true (1)

----------
# PROTOCOL NOTES: Cytotoxicity to mammalian cells, Vero
# Type: cell-based
# CONDITION DETAILS: African green monkey, Vero cells (African green monkey kidney epithelial cells)
MEASURE: IC50

Endpoint output: IC50 of COc1ccc(CCCc2nc(N)nc(N)c2-c2cccc(Cl)c2)cc1 . Value?
3 µM

// next record COC(=O)CCCc1nc(N)nc(N)c1-c1cccc(Cl)c1
20 µM

Repeat for the following compound: Nc1nc(N)c(-c2cccc(Cl)c2)c(CCOCCCOc2ccccc2)n1
15 µM

Next up: Nc1nc(N)c(-c2ccccc2)c(CCCc2ccccc2)n1
> 50 µM

Same lookup for COC(=O)CCCc1nc(N)nc(N)c1-c1ccccc1 , please.
20 µM

Entry CCCCCCc1nc(N)nc(N)c1-c1ccccc1 please
55 µM

Cool, now Nc1nc(N)c(-c2cccc(Cl)c2)c(CCCc2ccccc2)n1
2.1 µM

----------
# SYSTEM TESTED: PfDHFR C59R + S108N (Plasmodium falciparum, UniProt A7UD81, C59R/S108N)
# Sequence (A7UD81 whole entry C59R/S108N): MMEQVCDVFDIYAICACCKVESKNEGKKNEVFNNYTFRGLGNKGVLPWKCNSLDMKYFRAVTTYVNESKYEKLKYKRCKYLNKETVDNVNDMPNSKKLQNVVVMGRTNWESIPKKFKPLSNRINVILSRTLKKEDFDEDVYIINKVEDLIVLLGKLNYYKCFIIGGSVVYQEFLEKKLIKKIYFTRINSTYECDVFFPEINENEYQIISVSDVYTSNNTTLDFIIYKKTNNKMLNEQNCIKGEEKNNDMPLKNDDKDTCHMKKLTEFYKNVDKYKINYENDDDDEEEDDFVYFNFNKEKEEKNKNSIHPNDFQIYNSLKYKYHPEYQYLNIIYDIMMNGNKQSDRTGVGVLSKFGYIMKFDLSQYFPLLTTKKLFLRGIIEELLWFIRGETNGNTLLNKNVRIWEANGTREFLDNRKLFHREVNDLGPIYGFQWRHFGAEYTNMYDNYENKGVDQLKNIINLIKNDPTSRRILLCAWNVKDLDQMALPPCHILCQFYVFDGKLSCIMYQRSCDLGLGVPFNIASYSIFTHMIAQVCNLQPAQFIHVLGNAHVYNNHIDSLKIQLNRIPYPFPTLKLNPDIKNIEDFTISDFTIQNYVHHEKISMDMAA
# PROTOCOL NOTES: PfDHFR enzyme inhibition constants (Ki), double mutant C59R + S108N
MEASURE: Ki (nM)
// units = nM; emit number, no label

Param item = COC(=O)CCCc1nc(N)nc(N)c1-c1cccc(Cl)c1 ; retrieve measured Ki.
2.8

Another molecule: COC(=O)CCCc1nc(N)nc(N)c1-c1ccccc1
5.5

Same question for COc1ccc(CCCc2nc(N)nc(N)c2-c2cccc(Cl)c2)cc1 please.
6

Nc1nc(N)c(-c2cccc(Cl)c2)c(CCCc2ccccc2)n1 , same question.
4.2

Also, Nc1nc(N)c(-c2ccccc2)c(CCCc2ccccc2)n1 please.
2.4

And for CCCCCCc1nc(N)nc(N)c1-c1ccccc1 ?
0.7

Nc1nc(N)c(-c2cccc(Cl)c2)c(CCOCCCOc2ccccc2)n1 ?
1.9

----------
For each entry below, report its pKi value.
# SYSTEM TESTED: dihydrofolate reductase of Plasmodium falciparum, wild type (Plasmodium falciparum)
# Sequence (A7UD81 entry or part of it): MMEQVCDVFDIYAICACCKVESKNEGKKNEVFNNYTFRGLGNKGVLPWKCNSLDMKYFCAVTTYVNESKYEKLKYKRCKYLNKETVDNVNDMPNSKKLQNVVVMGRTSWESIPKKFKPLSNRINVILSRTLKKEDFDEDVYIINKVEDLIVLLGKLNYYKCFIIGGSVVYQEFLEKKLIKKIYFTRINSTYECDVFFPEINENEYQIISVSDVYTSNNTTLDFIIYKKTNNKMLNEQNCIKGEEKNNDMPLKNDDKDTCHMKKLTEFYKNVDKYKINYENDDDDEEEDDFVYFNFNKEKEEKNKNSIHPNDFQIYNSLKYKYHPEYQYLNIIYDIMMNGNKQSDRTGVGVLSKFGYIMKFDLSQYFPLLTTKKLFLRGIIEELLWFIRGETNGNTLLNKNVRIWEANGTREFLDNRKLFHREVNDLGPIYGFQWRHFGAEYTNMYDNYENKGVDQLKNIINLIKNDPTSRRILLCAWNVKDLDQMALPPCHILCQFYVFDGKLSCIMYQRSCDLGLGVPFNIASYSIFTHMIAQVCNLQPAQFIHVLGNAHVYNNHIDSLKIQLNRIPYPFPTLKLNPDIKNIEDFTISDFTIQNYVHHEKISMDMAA
Interpret pKi as the negative base-10 log of the concentration measured in mol/L.

Consider the compound CCCCCCc1nc(N)nc(N)c1-c1ccccc1 and give its measured pKi.
9.52

Consider next the compound COC(=O)CCCc1nc(N)nc(N)c1-c1ccccc1 in the same way.
9.22

Also COc1ccc(CCCc2nc(N)nc(N)c2-c2cccc(Cl)c2)cc1 ?
8.66

Same question for Nc1nc(N)c(-c2cccc(Cl)c2)c(CCCc2ccccc2)n1 please.
8.92

Next record, please: COC(=O)CCCc1nc(N)nc(N)c1-c1cccc(Cl)c1
9.30

Now try Nc1nc(N)c(-c2cccc(Cl)c2)c(CCOCCCOc2ccccc2)n1 .
9.40

Subsequent entry: Nc1nc(N)c(-c2ccccc2)c(CCCc2ccccc2)n1
9.30

----------
# PROTOCOL NOTES: Cytotoxicity to mammalian cells, KB
# Type: cell-based
# CONDITION DETAILS: human, KB cells (human epidermoid carcinoma)
Task for the reader: assign each of the following compounds its reported pIC50.
In plain terms, pIC50 is the concentration in mol/L turned into minus its base-10 logarithm.

Name the recorded pIC50 for CCCCCCc1nc(N)nc(N)c1-c1ccccc1 .
3.95

Same for COc1ccc(CCCc2nc(N)nc(N)c2-c2cccc(Cl)c2)cc1
4.82

Same for COC(=O)CCCc1nc(N)nc(N)c1-c1cccc(Cl)c1
5.03

Cool, now COC(=O)CCCc1nc(N)nc(N)c1-c1ccccc1
4.15

Try this compound too: Nc1nc(N)c(-c2cccc(Cl)c2)c(CCOCCCOc2ccccc2)n1
5.19

What do you have for CCc1nc(N)nc(N)c1-c1ccc(Cl)cc1 [Pyr, pyrimethamine, reference compound] ?
3.96

Another: Nc1nc(N)c(-c2ccccc2)c(CCCc2ccccc2)n1
3.82

Try this compound next: Nc1nc(N)c(-c2cccc(Cl)c2)c(CCCc2ccccc2)n1
5.80

----------
# SYSTEM TESTED: PfDHFR N51I + C59R + S108N (Plasmodium falciparum, UniProt A7UD81, C59R/N51I/S108N)
# Sequence (A7UD81 whole entry N51I/C59R/S108N): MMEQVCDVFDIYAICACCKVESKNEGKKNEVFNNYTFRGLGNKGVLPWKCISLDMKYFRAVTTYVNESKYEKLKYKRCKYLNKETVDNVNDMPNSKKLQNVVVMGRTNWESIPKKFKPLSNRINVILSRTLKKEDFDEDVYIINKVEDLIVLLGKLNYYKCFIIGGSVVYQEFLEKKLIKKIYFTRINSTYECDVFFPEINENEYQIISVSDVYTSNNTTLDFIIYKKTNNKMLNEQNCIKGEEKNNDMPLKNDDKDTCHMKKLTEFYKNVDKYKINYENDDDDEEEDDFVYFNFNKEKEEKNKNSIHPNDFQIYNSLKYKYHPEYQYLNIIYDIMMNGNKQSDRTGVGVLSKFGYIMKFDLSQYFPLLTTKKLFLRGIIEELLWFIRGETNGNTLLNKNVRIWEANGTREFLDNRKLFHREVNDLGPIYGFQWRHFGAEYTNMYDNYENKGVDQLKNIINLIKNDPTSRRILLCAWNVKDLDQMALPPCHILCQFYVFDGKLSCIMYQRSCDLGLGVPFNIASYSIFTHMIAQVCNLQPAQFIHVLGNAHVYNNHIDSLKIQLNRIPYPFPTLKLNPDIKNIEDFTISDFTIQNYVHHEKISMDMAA
# PROTOCOL NOTES: biochemical
MEASURE: Ki (nM)
Field: numeric (nM). Do not append units.

Notebook: pull reported Ki for PfDHFR N51I + C59R + S108N (Plasmodium falciparum, UniProt A7UD81, C59R/N51I/S108N), entry Nc1nc(N)c(-c2ccccc2)c(CCCc2ccccc2)n1 [Example 2]
1.1

And the next one, Nc1nc(N)c(-c2cccc(Cl)c2)c(CCOCCCOc2ccccc2)n1 [Example 7] ?
0.7

Also COc1ccc(CCCc2nc(N)nc(N)c2-c2cccc(Cl)c2)cc1 [Example 5] , if possible.
1.3

What about this compound? COC(=O)CCCc1nc(N)nc(N)c1-c1cccc(Cl)c1 [Example 6]
0.8
